System: 885512-296-R-J2-PDC complex spheroid viability;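 further: spheroids exposed to agents for 7 days before viability read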
Assay: Anticancer human tumor 885512-296-R-J2-PDC patient-derived breast carcinoma cell line growth inhibition
Details: second compound 0.1 µM; first compound 0.949 µM; stronger effect = lower value
The entries below come with measured viability, T/C values attached.
Quick note: give the figure in %, leave out the unit.

CCN(c1cc(-c2ccc(CN3CCOCC3)cc2)cc(C(=O)NCc2c(C)cc(C)[nH]c2=O)c1C)C1CCOCC1 + NC1CCC(NC2CC2c2ccccc2)CC1 ... 98.6

Which viability, T/C is listed for COc1cc(C2c3cc4c(cc3C(OC3OC5COC(C)OC5C(O)C3O)C3COC(=O)C23)OCO4)cc(OC)c1O (configuration not stated) + NC1CCC(NC2CC2c2ccccc2)CC1 ? 10.2

Which viability, T/C is listed for Nc1ccccc1NC(=O)c1ccc(CNC(=O)OCc2cccnc2)cc1 + NC1CC1c1ccc(-c2cccc(O)c2)cc1 ? 6.69

Which viability, T/C is listed for O=C(C=Cc1cccc(S(=O)(=O)Nc2ccccc2)c1)NO + NC1CC1c1ccc(-c2cccc(O)c2)cc1 ? 2.01
